Origin of values: PubChem BioAssay AID1159580

As shown below, each of these molecules has a reported normalized growth value.
assay: chemical genetic growth profiling, strain panel (AID 1159580);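 also: tested at 20 µM; growth read once vehicle control cultures reached saturation at 30 °C; 1 = growth at the plate median or of vehicle wells; lower values mean less growth of the strain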; conditions: S. cerevisiae deletion strains, growth OD, locus YNL322C, strain KRE1 (second series), active compounds read low
About 2,000 (36%) of roughly 5,500 compounds were called active. About 18% were inconclusive and are not listed. Some of the results follow.
Note: the reply should be a number with no unit written.

As a guide, the following entries are already answered.
| molecule | normalized growth |
| --- | --- |
| COC(=O)C(O)c1ccccc1 (stereo unspecified) | 0.992 |
| NC(N)=NS(=O)(=O)c1ccc(N)cc1 | 0.967 |
| COc1cc(-c2coc3cc(OC)c(OC)c(OC)c3c2=O)cc(OC)c1OC | 0.998 |
| C[N+]1(C)C2CC(OC(=O)[C@@H](CO)c3ccccc3)CC1C1OC12 (stereo partly specified) | 0.936 |

Prompt: Specify measured normalized growth for COc1cc(OC)c2c(=O)c(-c3ccccc3)coc2c1 .
Completion: 0.972

Prompt: Specify measured normalized growth for C[C@H]1CC[C@@H](C(C)(C)O)CC2=C1CC[C@@H]2C .
Completion: 0.987

---

assay: chemical genetic growth profiling, strain panel (AID 1159580);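 also: tested at 20 µM; growth read once vehicle control cultures reached saturation at 30 °C; 1 = growth at the plate median or of vehicle wells; lower values mean less growth of the strain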; conditions: S. cerevisiae deletion strains, growth OD, locus YER002W, strain NOP16, active compounds read low
Hit rate of the full screen: of about 5,500 compounds, about 2,000 (36%) were called active. Not shown: some 18% with an inconclusive outcome. Some of the results follow.
recorded.metric: normalized growth
Note: the reply should be a number with no unit written.

As a guide, the following entries are already answered.
| compound | observed.result |
| --- | --- |
| COc1ccc2c(c1)c(CC(=O)O)c(C)n2Cc1ccc(F)cc1 | 0.999 |
| C[N+]1(C)C2CC(OC(=O)[C@H](CO)c3ccccc3)CC1C1OC12 (stereo partly drawn) | 0.981 |
| NC(=O)c1cccc(N)c1 | 1.02 |
| CCCN1CCC[C@@H](c2cccc(O)c2)C1 | 0.983 |
| Clc1ccc(Cn2c(CN3CCCC3)nc3ccccc32)cc1 | 1.01 |
| C[C@@H]1O[C@H](C[N+](C)(C)C)CS1 | 0.997 |

Prompt: Specify measured normalized growth for CCCCC#Cc1nc(N)c2ncn([C@@H]3O[C@H](C(=O)NCC)[C@@H](O)[C@H]3O)c2n1 .
Completion: 1

Prompt: Specify measured normalized growth for C[N+]1(C)C2CC(OC(=O)C(CO)c3ccccc3)CC1C1OC12 (stereo not drawn) .
Completion: 0.997

---

assay: chemical genetic growth profiling, strain panel (AID 1159580);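 also: tested at 20 µM; growth read once vehicle control cultures reached saturation at 30 °C; 1 = growth at the plate median or of vehicle wells; lower values mean less growth of the strain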; conditions: S. cerevisiae deletion strains, growth OD, locus YPR167C, strain met16, active compounds read low
The whole screen tested about 5,500 compounds, of which about 2,000 (36%) were called active. Not shown: some 18% with an inconclusive outcome. The list shows a part of the results.
recorded.metric: normalized growth
Note: the reply should be a number with no unit written.

| molecule | recorded.metric | observed.result |
| --- | --- | --- |
| C=C1C(C)C2C(Cc3ccccc3)NC(=O)C23OC(=O)/C=C/C(O)CCCC(C)C/C=C/C3C1O (stereo not drawn) | normalized growth | 0.999 |
| C=C1C(C)C2C(Cc3ccccc3)NC(=O)C23OC(=O)/C=C/C(=O)CCCC(C)C/C=C/C3C1O (stereo not drawn) | normalized growth | 1.01 |

From here, focus on the item given below.
Prompt: Specify measured normalized growth for CC(C)C(=O)Nc1ccc([N+](=O)[O-])c(C(F)(F)F)c1 .
Completion: 0.984
